Ref: PubChem BioAssay (NCI)

Experiment: NCI Yeast Anticancer Drug Screen. Data for the mlh1 rad18 strain (AID 175)
Conditions: S. cerevisiae mlh1 rad18 strain growth inhibition, hits give high values; at 50.0 µM unless noted
About 79,000 compounds went through this panel and 15% of them were active in at least one assay; those are over-represented in the sample as a whole.
assay_metric: growth inhibition (%)

compound="CN(C)C(CCC(=O)NC(C)(C)C)CC(=O)NC(C)(C)C (stereo unspecified)" assay_metric="growth inhibition" reported_measurement=-8.65
compound=CCOC(=S)Nc1ccccc1[N+](=O)[O-] assay_metric="growth inhibition" reported_measurement=-9.15
compound=CCSc1[nH]c(Nc2nc(-c3ccccc3)n(-c3ccccc3)n2)c(C(N)=O)c1C(N)=O assay_metric="growth inhibition" reported_measurement=7
compound=COc1cccc(C2C(C(=O)Nc3cc(=O)n(C)c(=O)n3C)=C(C)NC(C)=C2C(=O)Nc2cc(=O)n(C)c(=O)n2C)c1O assay_metric="growth inhibition" reported_measurement=14.8
compound="O=C(CC(=O)Nc1ccccc1Cl)NNC(c1cc(N=Nc2ccc(Br)cc2)ccc1O)P(O)O (stereo unspecified)" assay_metric="growth inhibition" reported_measurement=-2.35
compound=C1=CC(=CN2CCc3ccccc3C2)C=C1 assay_metric="growth inhibition" reported_measurement=6.05
compound=Clc1ccccc1Nc1nc(Nc2ccccc2Cl)nc(Nc2ccccc2Cl)n1 assay_metric="growth inhibition" reported_measurement=5.95
compound="CCCC(=O)OCC1OC(n2cc(F)c(=O)[nH]c2=O)CC1OC(=O)CCC (stereo unspecified)" assay_metric="growth inhibition" reported_measurement=10.2
compound=CCCCCN1C(=O)c2ccccc2C1=O assay_metric="growth inhibition" reported_measurement=-0.55
compound=C=CCNC1=C(NC(C)=O)C(=O)c2ccccc2C1=O assay_metric="growth inhibition" reported_measurement=12.4
compound=Cc1cc(S(=O)(=O)Nc2n[nH]c(N)n2)c(S)cc1Cl assay_metric="growth inhibition" reported_measurement=12.8
